assay: qHTS assay to identify small molecule antagonists of the sonic hedgehog signaling (Shh) pathway (AID 1259369); details: NIH/3T3 Gli1-Luc reporter, Shh antagonist, luminescence 24 h; series mostly up to 92.4 µM; note: nearly all actives have a fitted effect of over 45% in size
Records with an inconclusive call do not appear. The source made the active and inactive calls. Calls come from the whole dose curve.
Your reply should match one of these outcome classes. active, inactive

# Molecule, Qualitative Label
measured = [
    ("CCCCCCOC(=O)CCCCCCCC(=O)OCCCCCC", "inactive"),
    ("Cc1nccn1-c1ccc(Sc2cccc(C3(C(N)=O)CCOCC3)c2)cc1", "active"),
    ("CCC(C(=O)OCCN(CC)CC)c1ccccc1 (stereo unspecified)", "inactive"),
]

Now, please, on to the next molecule.
Could you please tell me the result logged for CC(C)(O)c1ccccc1CC[C@@H](SCC1(CC(=O)O)CC1)c1cccc(/C=C/c2ccc3ccc(Cl)cc3n2)c1 in this assay?
inactive

----------
Experiment: qHTS assay to test for compound auto fluorescence at 590 nm (red) in HepG2 cells (AID 720674); note: % is set by controls: 0 for no effect and ±100 for the full control effect
Details: HepG2 autofluorescence, red 540/590 nm, 1 h; series mostly up to 91.3 µM
Description: U.S. Tox21 Program National Center for Advancing Translational Sciences [NCATS] NIH Chemical Genomics Center [NCGC] U.S. Environmental Protection Agency [EPA] National Institutes of Environmental Health Sciences [NIEHS] National Toxicology Program [NTP] U.S. Food and Drug Administration [FDA] Tox21 Assay Overview: Compound auto fluorescence often interferes with screening of the compound library against various biological targets and signaling pathways. […] This assay includes the red fluorescence data. […]
The source made the active and inactive calls. The call rests on the fitted dose curve; in most records, active means well fitted curve in the direction sought with a large enough effect in the repeat runs; inconclusive means weak or mixed curves; inactive means flat fitted curve, though single readings scatter.
Test Readout: fluorescence, relative to Rose Bengal

# Molecule, fluorescence, relative to Rose Bengal
records = [
    ("CCC(C)=O", "inactive"),
    ("CC(=O)Nc1ccc(N)cc1", "inactive"),
    ("c1ccc(COCc2ccccc2)cc1", "inactive"),
    ("O=C(O)Cc1ccc(-c2ccccc2)cc1", "0.37% [at 18.6 µM] (inactive)"),
]

Output measured fluorescence, relative to Rose Bengal for this item: CC#N
inactive

----------
biological target: Aryl hydrocarbon receptor (Homo sapiens); test: qHTS assay to identify small molecule that activate the aryl hydrocarbon receptor (AhR) signaling pathway (AID 743085); details: HepG2 AhR-luc (HG2L7.5c1), luciferase, 24 h; series mostly up to 70.3 µM; note: nearly all actives have a fitted effect of over 15% in size;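 for activation: HG2L7.5c1 human HepG2 liver cells with stably integrated DRE-driven firefly reporter; % is set by controls: 0 for no effect and ±100 for the full control effect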
Records with an inconclusive call do not appear. The source made the active and inactive calls. Calls come from the whole dose curve; as a rule, active = well fitted activation curve with a large enough effect in the repeat runs; inconclusive = weak or mixed curves; inactive = no such curve, though single readings can be large or run the other way.
// allowed return values: active, inactive

# Molecule, Target Of Assay, Qualitative Label
rows = [
    ("CC(=O)[C@H]1CC[C@H]2[C@@H]3C[C@H](C)C4=CC(=O)CC[C@]4(C)[C@H]3[C@@H](O)C[C@]12C", "Aryl hydrocarbon receptor (Homo sapiens)", "inactive"),
    ("O=C(O)c1cccnc1C(=O)O", "Aryl hydrocarbon receptor (Homo sapiens)", "inactive"),
    ("CCCCN(CCCC)CCCOC(=O)c1ccc(N)cc1", "Aryl hydrocarbon receptor (Homo sapiens)", "inactive"),
]

Identify the outcome logged in this assay for the molecule shown: Brc1cc(-c2ccc(Br)c(Br)c2Br)cc(Br)c1Br
active

Recorded test outcome, item Cc1ccnc2ccccc12
inactive

Field: outcome | Entry: CCCOC(=O)c1ccc(C(=O)OCCC)nc1
inactive

----------
assay: qHTS assay for identifying genotoxic compounds that show differential cytotoxicity against isogenic chicken DT40 cell lines with known DNA damage response pathways - Rad54/Ku70 mutant cell line (AID 743015); conditions: DT40 Rad54/Ku70 mutant viability, CellTiter-Glo, 40 h; series mostly up to 66.8 µM; note: nearly all actives have a fitted effect of over 60% in size
Results filed as inconclusive are left out. The source made the active and inactive calls. Calls come from the whole dose curve; as a rule, active = well fitted cell-killing curve with a large enough effect in the repeat runs; inconclusive = weak or mixed curves; inactive = no such curve, though single readings can be large or run the other way.
Select the matching outcome among class 1 for active, class 0 for inactive

Previously resolved entries follow.
# Compound, Qualitative Label
records = [
    ("C=C(C)C(=O)OCCOC(=O)CC(C)=O", "class 0"),
    ("CNC(=S)NC", "class 1"),
    ("OCC1CC=CCC1 (centres undefined)", "class 0"),
]

Kindly provide the recorded test outcome for the following compound: CCCCCC=CCC=CCCCCCCCC(=O)OCC
class 0
